- Subject Of Test: GlyT2 Y550L mutant (Homo sapiens, UniProt Q9Y345, Y550L)
- Sequence (Q9Y345 1-797 Y550L): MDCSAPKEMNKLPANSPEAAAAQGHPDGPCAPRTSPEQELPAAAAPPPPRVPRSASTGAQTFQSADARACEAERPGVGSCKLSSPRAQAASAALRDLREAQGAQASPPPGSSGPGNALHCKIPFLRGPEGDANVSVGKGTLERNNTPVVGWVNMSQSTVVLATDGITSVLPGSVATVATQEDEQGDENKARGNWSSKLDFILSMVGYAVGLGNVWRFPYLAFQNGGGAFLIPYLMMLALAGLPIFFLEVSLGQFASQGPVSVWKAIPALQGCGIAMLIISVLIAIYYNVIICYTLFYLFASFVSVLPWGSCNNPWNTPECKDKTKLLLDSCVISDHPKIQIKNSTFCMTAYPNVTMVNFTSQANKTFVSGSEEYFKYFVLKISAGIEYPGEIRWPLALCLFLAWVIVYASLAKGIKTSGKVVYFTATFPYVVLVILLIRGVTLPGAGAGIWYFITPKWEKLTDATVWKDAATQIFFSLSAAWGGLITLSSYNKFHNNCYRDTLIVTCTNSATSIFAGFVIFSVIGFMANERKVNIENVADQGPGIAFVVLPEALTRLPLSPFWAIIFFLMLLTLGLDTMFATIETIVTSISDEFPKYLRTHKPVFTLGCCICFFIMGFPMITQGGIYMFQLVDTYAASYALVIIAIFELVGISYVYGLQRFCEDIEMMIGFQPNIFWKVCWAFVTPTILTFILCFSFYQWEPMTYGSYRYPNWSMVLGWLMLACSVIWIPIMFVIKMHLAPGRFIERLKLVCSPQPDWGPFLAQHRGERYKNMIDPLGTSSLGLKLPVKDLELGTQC
- Assay Summary: Glycine transport currents, two electrode voltage clamp, oocytes expressing GlyT2 Y550L
- Assay Conditions: glycine transport, GlyT2 Y550L (EL4)
Property: EC50 (µM)

{"Compound": "NCC(=O)O", "Subject Of Test": "GlyT2 Y550L mutant (Homo sapiens, UniProt Q9Y345, Y550L)", "Property": "EC50", "Observed Measurement": 62.2}

Values from paper PMC6797481
